molecular target: human adenosine A1 receptor (Homo sapiens (Human), UniProt P30542); assay: Adenosine receptor inhibition binding assay, [3H]DPCPX, A1 receptor membranes; conditions: 1 nM [3H]DPCPX, 25° C., 1 h; Ki from IC50 by Cheng-Prusoff
Sequence (P30542 whole entry): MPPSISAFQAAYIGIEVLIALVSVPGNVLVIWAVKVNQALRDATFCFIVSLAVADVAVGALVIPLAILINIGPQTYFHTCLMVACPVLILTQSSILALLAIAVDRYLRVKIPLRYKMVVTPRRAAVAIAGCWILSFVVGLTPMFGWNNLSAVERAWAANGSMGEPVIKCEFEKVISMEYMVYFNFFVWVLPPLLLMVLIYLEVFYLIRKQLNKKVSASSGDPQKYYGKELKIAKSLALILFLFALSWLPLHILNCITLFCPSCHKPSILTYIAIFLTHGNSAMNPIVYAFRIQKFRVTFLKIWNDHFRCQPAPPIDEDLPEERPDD
The threshold is inclusive: A1 pKi of exactly 7 counts as class 1; values below receive class 0.

Q: Can `Cc1ocnc1Cn1nc2c(-c3cc(C)[n+]([O-])c(C)c3)c(-c3ccccc3)nc(N)n2c1=O` be said to have A1 pKi at or above 7?
Ans: class 1

Q: Given `Cc1cc(-c2c(-c3ccccc3)nc(N)n3c(=O)n(CCN4CCCC4)nc23)cc(C)n1` , state whether its A1 pKi is at least 7.
Ans: class 0

Q: Does the molecule `Cc1cc(-c2c(-c3ccccc3)nc(N)n3c(=O)n(C[C@@H]4C[C@H](F)CN4)nc23)cc(C)n1` have recorded A1 pKi that is 7 or more?
Ans: class 0

Q: Is it the case that `COc1cc(-c2c(-c3ccccc3)nc(N)n3c(=O)n(C[C@H]4CCCO4)nc23)cc(CO)n1` has A1 pKi reaching or exceeding 7?
Ans: class 0

Q: Identify whether the reported A1 pKi of the following molecule is 7 or greater: `Cc1cc(-c2c(-c3ccc(F)cc3)nc(N)n3c(=O)n(Cc4ncoc4C)nc23)cc(CO)n1`
Ans: class 0

Q: Given `COc1cc(-c2c(-c3ccccc3)nc(N)n3c(=O)n(C[C@H]4CCCO4)nc23)cc(C)n1` , state whether its A1 pKi is at least 7.
Ans: class 0

Q: Say whether Cc1cc(-c2c(-c3ccccc3)nc(N)n3c(=O)n(CCNC4CCN(C(=O)c5cccnc5)C4)nc23)cc(C)n1 (stereo not drawn) shows A1 pKi of 7 or more.
Ans: class 0

Q: # check: A1 pKi of Cc1cc(-c2c(-c3ccccc3)nc(N)n3c(=O)n(CCN4CCCC4c4cccs4)nc23)cc(C)n1 (stereo not drawn) is greater than or equal to 7
Ans: class 1

Q: Please indicate if the recorded A1 pKi for `Cc1cc(-c2c(-c3ccccc3)nc(N)n3c(=O)n(Cc4nnc(C)o4)nc23)cc(C)n1` meets or exceeds 7.
Ans: class 0

Q: Quick check: does `Cc1cc(-c2c(-c3ccccc3)nc(N)n3c(=O)n(Cc4nnco4)nc23)cc(C)n1` have A1 pKi greater than or equal to 7?
Ans: class 0

Q: Item Cc1cc(-c2c(-c3ccccc3)nc(N)n3c(=O)n(C(C)c4cccs4)nc23)cc(C)n1 (stereo not drawn) with A1 pKi of 7 or above?
Ans: class 0

Q: Threshold query (A1 pKi >= 7) on `Cc1cc(-c2c(-c3ccccc3)nc(N)n3c(=O)n(Cc4noc(C)n4)nc23)cc(C)n1`
Ans: class 0

Q: Record `COc1cc(-c2c(-c3ccccc3)nc(N)n3c(=O)n(Cc4nccn4C)nc23)cc(C)n1` ; criterion: A1 pKi no lower than 7. Met?
Ans: class 1

* * *

Give A1 pKi for every item shown.
target: human adenosine A1 receptor (Homo sapiens (Human)); assay: Adenosine receptor inhibition binding assay, [3H]DPCPX, A1 receptor membranes; conditions: 1 nM [3H]DPCPX, 25° C., 1 h; Ki from IC50 by Cheng-Prusoff
In your answer, state the number alone without any accompanying words.

Entry `Cc1cc(-c2c(-c3ccc(F)cc3)nc(N)n3c(=O)n(Cc4nc(C)oc4C)nc23)cc(CO)n1` , A1 pKi reported as 6.5

Query `COCCN1CCC[C@@H]1Cn1nc2c(-c3cc(C)nc(C)c3)c(-c3ccccc3)nc(N)n2c1=O` yields A1 pKi of 6.3

The measured A1 pKi associated with `Cc1cc(-c2c(-c3ccccc3)nc(N)n3c(=O)n(CCc4nccn4C)nc23)cc(C)n1` reads 6.1

Form field A1 pKi, entry `Cc1cc(-c2c(-c3ccccc3)nc(N)n3c(=O)n(CCc4nnn(C)n4)nc23)cc(C)n1` : 5.7

// recorded A1 pKi for `Cc1cc(-c2c(-c3ccccc3)nc(N)n3c(=O)n(Cc4ccnn4C)nc23)cc(C)n1` : 7.1

Form: compound = `Cc1cc(-c2c(-c3ccccc3)nc(N)n3c(=O)n(Cc4cnc[nH]4)nc23)cc(C)n1` ; A1 pKi = 6.6

A1 pKi measured on `Cc1cc(-c2c(-c3ccccc3)nc(N)n3c(=O)n(C[C@@H]4C[C@@H](F)CN4)nc23)cc(C)n1` = 6.4

response.value for `Cc1cc(-c2c(-c3ccc(F)cc3)nc(N)n3c(=O)n(C[C@H]4CCCO4)nc23)cc(CO)n1` (field: A1 pKi) = 6.1

A1 pKi for Cc1cc(-c2c(-c3ccccc3)nc(N)n3c(=O)n(CC4CCCN4C(=O)OC(C)(C)C)nc23)cc(C)n1 (stereo not drawn) is 6.6

Memo: `CCn1nccc1CCn1nc2c(-c3cc(C)nc(C)c3)c(-c3ccccc3)nc(N)n2c1=O` , reported A1 pKi: 6.6

* * *

biological target: UniProt:P29274; experiment: Adenosine receptor inhibition binding assay, [3H]ZM241385, HEK293 A2A receptor membranes; details: 1 nM [3H]ZM241385, HEK293-hA2A membranes, 25° C., 1 h; Ki from IC50 by Cheng-Prusoff
Sequence (P29274 whole entry): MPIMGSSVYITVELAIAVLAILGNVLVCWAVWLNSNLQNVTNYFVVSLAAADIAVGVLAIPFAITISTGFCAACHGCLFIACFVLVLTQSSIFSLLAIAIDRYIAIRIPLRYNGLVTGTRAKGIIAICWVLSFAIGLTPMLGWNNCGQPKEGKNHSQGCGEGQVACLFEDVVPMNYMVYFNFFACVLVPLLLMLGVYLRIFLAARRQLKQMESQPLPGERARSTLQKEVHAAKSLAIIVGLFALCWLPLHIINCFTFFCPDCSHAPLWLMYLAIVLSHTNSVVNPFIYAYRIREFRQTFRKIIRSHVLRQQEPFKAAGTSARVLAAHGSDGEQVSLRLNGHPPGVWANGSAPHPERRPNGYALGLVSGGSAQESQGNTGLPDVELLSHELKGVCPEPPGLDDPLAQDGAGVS
Decide by A2A pKi: equal to or exceeding 9 means criterion met, less means criterion not met.

Q: Does A2A pKi meet or surpass 9 for `COc1cc(-c2c(-c3ccc(F)cc3)nc(N)n3c(=O)n(Cc4nccn4C)nc23)cc(CO)n1` ?
Ans: criterion met

Q: A2A pKi >= 9 for `Cc1cc(-c2c(-c3ccccc3)nc(N)n3c(=O)n(C[C@H]4CC(F)(F)CN4)nc23)cc(C)n1` ?
Ans: criterion not met

Q: Could you verify whether the entry `Cc1cc(-c2c(-c3ccccc3)nc(N)n3c(=O)n(Cc4c(C)ncn4C)nc23)cc(CO)n1` shows A2A pKi of no less than 9?
Ans: criterion not met

Q: Hello, I need to know if `Cc1cc(-c2c(-c3ccccc3)nc(N)n3c(=O)n(Cc4ncoc4C)nc23)cc(CO)n1` has measured A2A pKi not below 9. Thanks!
Ans: criterion met

Q: Form field: A2A pKi at least 9? Entry: `COc1cc(-c2c(-c3ccccc3)nc(N)n3c(=O)n(Cc4nccn4C)nc23)cc(CO)n1`
Ans: criterion met

Q: Is reported A2A pKi greater than or equal to 9 here: `Cc1cc(-c2c(-c3ccccc3)nc(N)n3c(=O)n(C[C@H]4C[C@H](F)CN4)nc23)cc(C)n1`
Ans: criterion not met

Q: Item `Cc1cc(-c2c(-c3ccc(F)cc3)nc(N)n3c(=O)n(C[C@H]4CCCO4)nc23)cc(CO)n1` with A2A pKi of 9 or above?
Ans: criterion not met

Q: Quick check, A2A pKi >= 9? `Cc1cc(-c2c(-c3ccccc3)nc(N)n3c(=O)n(C[C@H]4CCCO4)nc23)cc(CO)n1`
Ans: criterion met

Q: Check if A2A pKi >= 9 (inclusive). Item: Cc1cc(-c2c(-c3ccccc3)nc(N)n3c(=O)n(CC4CCCN4C(=O)OC(C)(C)C)nc23)cc(C)n1 (stereo not drawn)
Ans: criterion not met

Q: Kindly determine if A2A pKi recorded for `Nc1nc(-c2ccc(F)cc2)c(-c2cc(Cl)nc(CO)c2)c2nn(C[C@H]3CCCO3)c(=O)n12` is above or exactly 9.
Ans: criterion met

Q: Check this molecule for A2A pKi at or above 9: `COc1cc(-c2c(-c3ccccc3)nc(N)n3c(=O)n(Cc4nccn4C)nc23)cc(C)n1`
Ans: criterion met

Q: Decide: is the reported value of A2A pKi for `Cc1cc(-c2c(-c3ccccc3)nc(N)n3c(=O)n(C[C@@H]4C[C@H](F)CN4)nc23)cc(C)n1` equal to or greater than 9?
Ans: criterion not met

* * *

molecular target: human adenosine A1 receptor (Homo sapiens (Human), UniProt P30542); assay: Adenosine receptor inhibition binding assay, [3H]DPCPX, A1 receptor membranes; settings: 1 nM [3H]DPCPX, 25° C., 1 h; Ki from IC50 by Cheng-Prusoff
So I've got a bunch of molecules here, and I need their A1 pKi values.
// keep it numeric: no unit symbol after the value

Reported A1 pKi ( `Cc1ocnc1Cn1nc2c(-c3cc(Cl)nc(CO)c3)c(-c3ccccc3)nc(N)n2c1=O` ) = 7.2

Measured A1 pKi of `Cc1cc(-c2c(-c3ccccc3)nc(N)n3c(=O)n(C[C@@H]4CC(F)(F)CN4C)nc23)cc(C)n1` : 6.3

Just so you know, measured A1 pKi for `Cc1cc(-c2c(-c3ccccc3)nc(N)n3c(=O)n(Cc4c(C)ncn4C)nc23)cc(CO)n1` came out at 6.8

Looking up `Nc1nc(-c2ccc(F)cc2)c(-c2cc(Cl)nc(CO)c2)c2nn(C[C@H]3CCCO3)c(=O)n12` , I see its A1 pKi listed as 6.3

The molecule listed as `COc1cc(-c2c(-c3ccccc3)nc(N)n3c(=O)n(Cc4nccn4C)nc23)cc(CO)n1` has a reported A1 pKi of 6.8

The molecule listed as `Cc1cc(-c2c(-c3ccccc3)nc(N)n3c(=O)n(Cc4cc(C)on4)nc23)cc(CO)n1` has a reported A1 pKi of 6.7

// field: A1 pKi; key: Cc1cc(-c2c(-c3ccccc3)nc(N)n3c(=O)n(C4CCN(C)C4)nc23)cc(C)n1 (stereo not shown) ; value = 6.1
